assayed-system: Transient receptor potential cation channel subfamily V member 1 (Homo sapiens, UniProt Q8NER1)
Sequence (Q8NER1 whole entry): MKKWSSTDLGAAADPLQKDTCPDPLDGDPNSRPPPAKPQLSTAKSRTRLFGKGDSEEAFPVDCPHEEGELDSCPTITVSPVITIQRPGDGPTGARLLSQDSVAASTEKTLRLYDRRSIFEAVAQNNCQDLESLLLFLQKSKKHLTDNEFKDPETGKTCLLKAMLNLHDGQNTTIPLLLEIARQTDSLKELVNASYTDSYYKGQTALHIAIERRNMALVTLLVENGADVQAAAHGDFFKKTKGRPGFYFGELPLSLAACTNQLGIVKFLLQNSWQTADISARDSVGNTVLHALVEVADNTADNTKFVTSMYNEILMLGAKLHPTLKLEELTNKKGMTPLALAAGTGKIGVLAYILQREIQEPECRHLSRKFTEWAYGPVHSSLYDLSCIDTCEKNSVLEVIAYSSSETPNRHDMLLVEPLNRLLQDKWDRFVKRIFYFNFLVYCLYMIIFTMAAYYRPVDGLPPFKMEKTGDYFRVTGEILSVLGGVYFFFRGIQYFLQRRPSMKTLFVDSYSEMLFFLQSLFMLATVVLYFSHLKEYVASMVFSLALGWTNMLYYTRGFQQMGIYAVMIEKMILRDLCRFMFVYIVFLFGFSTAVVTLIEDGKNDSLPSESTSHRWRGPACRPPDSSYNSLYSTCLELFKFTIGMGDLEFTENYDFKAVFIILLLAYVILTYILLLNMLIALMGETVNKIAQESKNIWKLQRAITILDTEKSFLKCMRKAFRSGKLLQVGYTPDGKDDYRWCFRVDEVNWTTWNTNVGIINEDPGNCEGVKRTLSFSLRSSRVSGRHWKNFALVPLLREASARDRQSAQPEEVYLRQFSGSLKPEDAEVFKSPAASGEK
protocol-description: Maximal agonist activity on human recombinant TRPV1-mediated enhancement of intracellular calcium concentration in HEK293 cells at 10 uM
Type: functional, cell-based
Labelling field: enter Criterion met if recorded Emax is less than 50%. Enter Criterion not met if it equals or exceeds that cut-off.

Worked examples, 4 compounds total:
{"compound": "CCCCCCCCCCCCCCCC(=O)N(O)CCO", "label-value": "Criterion met"}
{"compound": "CCCCCCCC/C=C\\CCCCCCCC(=O)ONCCO", "label-value": "Criterion met"}
{"compound": "CCCCC/C=C\\C/C=C\\C/C=C\\C/C=C\\CCCC(=O)N(O)CCO", "label-value": "Criterion not met"}
{"compound": "CCCCCCCC/C=C\\CCCCCCCC(=O)N(O)CCO", "label-value": "Criterion not met"}

## Task Could you please tell me whether Emax recorded for CCCCC/C=C\C/C=C\C/C=C\C/C=C\CCCC(=O)NCCO [ANANDAMIDE] is less than 50%?
## Result Criterion not met

## Task Please check: Emax for "CCCCC/C=C\C/C=C\C/C=C\C/C=C\CCCC(=O)ONCCO" , strictly under 50% or not?
## Result Criterion met

## Task Dear reviewer, please state whether "CCCCCCCCCCCCCCCC(=O)NOCCO" has Emax strictly beneath 50%.
## Result Criterion met

## Task Field: below-cutoff. Rule: recorded Emax strictly less than 50%. Subject: "CCCCC/C=C\C/C=C\C/C=C\C/C=C\CCCC(=O)NOCCO"
## Result Criterion not met

## Task I wonder whether "CCCCCCCCCCCCCCCC(=O)ONCCO" has Emax below 50%. Can you tell?
## Result Criterion met
